- Read-out: Glutamate-cysteine ligase regulatory (GCLM), GCLM (gene 2730)
- protocolNotes: LTEA_HepaRG_GCLM: Life Technologies and Expression Analysis (LTEA) Assay for Glutamate-cysteine ligase regulatory (GCLM) using HepaRG (AID 2283500)
- testSettings: mRNA level, 48 h; actives raise or lower the signal
Activity calls are given as the source filed them. Rule for the calls: active = hit-call score of the fitted dose curve at least 0.9, where 1 is the maximum; inactive = score below 0.9.
Respond only with the outcome that fits, drawn from active, inactive

query: Dear all, I need the recorded test outcome for COCC(C)OCC(C)OCC(C)O (stereo unspecified) , thank you.
result: inactive

query: Dear all, I need the recorded test outcome for `CC(C)(c1cc(Br)c(O)c(Br)c1)c1cc(Br)c(O)c(Br)c1` , thank you.
result: inactive

query: Dear all, I need the recorded test outcome for `CCN(CC)C(=O)c1cc(S(=O)(=O)Cc2ccccc2)c(N2CCC(c3ccccc3)CC2)cc1N(CC)CCN(C)C` , thank you.
result: inactive

query: Dear all, I need the recorded test outcome for `c1ccc(C[n+]2cccc3ccccc32)cc1` , thank you.
result: active

query: Dear all, I need the recorded test outcome for `Cc1cccc2ccccc12` , thank you.
result: inactive

query: Dear all, I need the recorded test outcome for CN1C(=O)N(c2ccccc2Br)Cc2cnc(Nc3ccc4c(c3)OCC(CO)O4)nc21 (stereo unspecified) , thank you.
result: inactive

query: Dear all, I need the recorded test outcome for `CN1C(=O)CC[C@H]1c1cccnc1` , thank you.
result: inactive

query: Dear all, I need the recorded test outcome for `c1ccc2ccccc2c1` , thank you.
result: inactive

query: Dear all, I need the recorded test outcome for `CC[C@H](NC(=O)c1cc(F)ccc1NS(=O)(=O)c1cccc2cccnc12)c1ccccc1` , thank you.
result: inactive

query: Dear all, I need the recorded test outcome for `CC1(C)NC(=O)N(c2ccc([N+](=O)[O-])c(C(F)(F)F)c2)C1=O` , thank you.
result: active

query: Dear all, I need the recorded test outcome for `O=c1ccc2ccccc2o1` , thank you.
result: inactive

query: Dear all, I need the recorded test outcome for `Cc1cc(F)ccc1-c1cc(N2CC[C@@H](O)[C@H]2CO)ncc1N(C)C(=O)C(C)(C)c1cc(C(F)(F)F)cc(C(F)(F)F)c1` , thank you.
result: active

query: Dear all, I need the recorded test outcome for `Cc1occc1C(=O)Nc1ccc(C(=O)N2CCC(F)(F)/C(=C\C(=O)N3CCC(N4CCCCC4)CC3)c3ccccc32)cc1` , thank you.
result: inactive

query: Dear all, I need the recorded test outcome for `Clc1ccccc1C(c1ccccc1)(c1ccccc1)n1ccnc1` , thank you.
result: active

query: Dear all, I need the recorded test outcome for `CCCCCCCC[Si](OCC)(OCC)OCC` , thank you.
result: inactive

query: Dear all, I need the recorded test outcome for `COc1cccc([C@H](O)C2CCN(CCc3ccc(F)cc3)CC2)c1OC` , thank you.
result: inactive

* * *

- Read-out: Heat shock 70 kDa protein 1 (HSPA1A), gene 3303
- protocolNotes: LTEA_HepaRG_HSPA1A: Life Technologies and Expression Analysis (LTEA) Assay for Heat shock 70 kDa protein 1 (HSPA1A) using HepaRG (AID 2283502)
- testSettings: mRNA level, 48 h; actives raise or lower the signal
Activity calls are given as the source filed them. How the source made its calls: active means hit-call score of the fitted dose curve at least 0.9, where 1 is the maximum; inactive means score below 0.9.
Respond only with the outcome that fits, drawn from yes for active, no for inactive

query: Dear all, I need the recorded test outcome for CC(O)CC(C)(C)O (stereo not given) , thank you.
result: no

query: Dear all, I need the recorded test outcome for `COc1ccc2cc(S(=O)(=O)N[C@H](CC(=O)N[C@H](Cc3ccc(CN4[C@H](C)CCC[C@@H]4C)cc3)C(=O)N(C)C(C)C)c3ccc4c(c3)OCO4)ccc2c1` , thank you.
result: yes

query: Dear all, I need the recorded test outcome for `COc1cccc([C@H](O)C2CCN(CCc3ccc(F)cc3)CC2)c1OC` , thank you.
result: no

query: Dear all, I need the recorded test outcome for `CCCOC(=O)c1cc(O)c(O)c(O)c1` , thank you.
result: no

query: Dear all, I need the recorded test outcome for `CCCCCCCC[Si](OCC)(OCC)OCC` , thank you.
result: no

* * *

- Read-out: growth arrest and DNA damage 45 (GADD45A), GADD45A (gene 1647)
- protocolNotes: LTEA_HepaRG_GADD45A: Life Technologies and Expression Analysis (LTEA) Assay for growth arrest and DNA damage 45 (GADD45A) using HepaRG (AID 2283458)
- testSettings: mRNA level, 48 h; actives raise or lower the signal
Activity calls are given as the source filed them. Rule for the calls: active = hit-call score of the fitted dose curve at least 0.9, where 1 is the maximum; inactive = score below 0.9.
Respond only with the outcome that fits, drawn from active, inactive

query: Dear all, I need the recorded test outcome for `Cc1oc2c(NC(=O)c3c(Cl)cccc3Cl)cccc2c1C(C)(C)O` , thank you.
result: inactive

query: Dear all, I need the recorded test outcome for `CC(C)(C)c1csc(-c2cc3cc(OCc4ccccc4CC(=O)O)ccc3o2)n1` , thank you.
result: inactive

query: Dear all, I need the recorded test outcome for `O=C1O[C@H]([C@@H](O)CO)C(O)=C1O` , thank you.
result: inactive

query: Dear all, I need the recorded test outcome for `O=C(O)c1ccccc1-n1cc(C(=O)O)c(=O)c2cc(Nc3c(F)cc(F)cc3Cl)c(Cl)cc21` , thank you.
result: active

query: Dear all, I need the recorded test outcome for `Cc1ccc2oc(CN(Cc3ccccc3)C(=O)Nc3c(F)cc(F)cc3F)c(-c3ccc(Cl)cc3)c2c1` , thank you.
result: active

query: Dear all, I need the recorded test outcome for `CN(C)c1ccc(C(=C2C=CC(=[N+](C)C)C=C2)c2ccc(N(C)C)cc2)cc1` , thank you.
result: active

query: Dear all, I need the recorded test outcome for `O=C(O)c1ccccc1C(=O)OCc1ccccc1` , thank you.
result: inactive

query: Dear all, I need the recorded test outcome for OC12N=C(c3ccccc3)SC1Cc1cc(Cl)ccc12 (centres undefined) , thank you.
result: inactive

query: Dear all, I need the recorded test outcome for `CC1=CC(=O)/C(=C(/C)O)C(=O)O1` , thank you.
result: inactive

* * *

- Read-out: matrix metalloproteinase-3 (MMP3), MMP3 (gene 4314)
- protocolNotes: LTEA_HepaRG_MMP3: Life Technologies and Expression Analysis (LTEA) Assay for matrix metalloproteinase-3 (MMP3) using HepaRG (AID 2283519)
- testSettings: mRNA level, 48 h; actives raise or lower the signal
Activity calls are given as the source filed them. Rule for the calls: active = hit-call score of the fitted dose curve at least 0.9, where 1 is the maximum; inactive = score below 0.9.
Respond only with the outcome that fits, drawn from 1.0 (active), 0.0 (inactive)

query: Dear all, I need the recorded test outcome for `Cc1cc(F)ccc1-c1cc(N2CC[C@@H](O)[C@H]2CO)ncc1N(C)C(=O)C(C)(C)c1cc(C(F)(F)F)cc(C(F)(F)F)c1` , thank you.
result: 0.0

query: Dear all, I need the recorded test outcome for `CO[C@H]1/C=C/O[C@@]2(C)Oc3c(C)c(O)c4c(O)c(c(/C=N/N5CCN(C)CC5)c(O)c4c3C2=O)NC(=O)/C(C)=C\C=C\[C@H](C)[C@H](O)[C@@H](C)[C@@H](O)[C@@H](C)[C@H](OC(C)=O)[C@@H]1C` , thank you.
result: 0.0

query: Dear all, I need the recorded test outcome for `NCc1cccc(C2CCN(C(=O)c3ccc(C#Cc4ccccc4F)o3)CC2)c1` , thank you.
result: 0.0

query: Dear all, I need the recorded test outcome for `CCCC(=O)OCCC(C)C` , thank you.
result: 0.0

query: Dear all, I need the recorded test outcome for `CCCCOC(=O)c1ccc(O)cc1` , thank you.
result: 0.0

query: Dear all, I need the recorded test outcome for `Cc1c2ccccc2c(C)c2c1ccc1ccccc12` , thank you.
result: 1.0

* * *

- experimentalTarget: rat Neonicotinoid receptor (NNR), Chrna7 (gene 25302) (UniProt Q05941)
- Sequence (Q05941 whole entry, looked up): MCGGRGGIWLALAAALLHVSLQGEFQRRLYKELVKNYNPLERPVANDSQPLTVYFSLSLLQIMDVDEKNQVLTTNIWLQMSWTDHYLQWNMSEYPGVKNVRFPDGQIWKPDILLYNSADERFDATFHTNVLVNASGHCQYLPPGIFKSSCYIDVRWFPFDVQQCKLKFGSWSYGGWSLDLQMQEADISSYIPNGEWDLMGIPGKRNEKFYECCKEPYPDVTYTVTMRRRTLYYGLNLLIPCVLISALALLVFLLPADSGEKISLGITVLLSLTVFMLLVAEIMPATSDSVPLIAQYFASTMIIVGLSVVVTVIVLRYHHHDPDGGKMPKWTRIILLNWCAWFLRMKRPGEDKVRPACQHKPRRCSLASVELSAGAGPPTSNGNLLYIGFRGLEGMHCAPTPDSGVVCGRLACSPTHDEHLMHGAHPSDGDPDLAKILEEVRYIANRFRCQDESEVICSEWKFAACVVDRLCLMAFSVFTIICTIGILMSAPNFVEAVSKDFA
- protocolNotes: NVS_LGIC_rNNR_BungSens: NovaScreen (NVS) Ligand-Gated Ion Channel Assay for rat Neonicotinoid receptor (NNR) (AID 2283315)
Inconclusive results are not listed. The source made the active and inactive calls. Rule for the calls: active = hit-call score of the fitted dose curve at least 0.9, where 1 is the maximum; inconclusive = response in the unintended direction; inactive = score below 0.9.
property: AC50

{"inputSmiles": "O=C(O)Cc1cc(I)c(Oc2ccc(O)c(I)c2)c(I)c1", "AC50": "inactive"}
{"inputSmiles": "CC(C)(C)c1csc(-c2cc3cc(OCc4ccccc4CC(=O)O)ccc3o2)n1", "AC50": "inactive"}
{"inputSmiles": "O=C1CCC(C2CCCCC2)CC1", "AC50": "inactive"}
{"inputSmiles": "COc1ccc2cc(S(=O)(=O)N[C@H](CC(=O)N[C@H](Cc3ccc(CN4[C@H](C)CCC[C@@H]4C)cc3)C(=O)N(C)C(C)C)c3ccc4c(c3)OCO4)ccc2c1", "AC50": "inactive"}
{"inputSmiles": "Clc1cc(Cl)c2c(c1)N=C1CCCCCN1C2", "AC50": "5.61 µM (active)"}

query: Which AC50 value belongs to `c1ccc(C[n+]2cccc3ccccc32)cc1` ?
result: 25 µM (active)

query: Which AC50 value belongs to `CN(C)C(=O)C1(N2CCCCC2)CCN(CC[C@@]2(c3ccc(Cl)c(Cl)c3)CN(C(=O)c3ccccc3)CCO2)CC1` ?
result: inactive

* * *

- protocolNotes: CEETOX_H295R_OHPREG: CeeTox H295R High-throughput Steroidogenesis Assay for OH-Pregnenolone (OHPREG) (AID 2283434)
- testSettings: actives raise or lower the signal
- Procedure: CEETOX_H295R is a cell-based, multiplexed-readout assay that uses H295R, a human adrenal gland cell line, with measurements taken at 48 hours after chemical dosing in a 96-well plate.CEETOX_H295R_OHPREG is one of 23 assay component(s) measured or calculated from the CEETOX_H295R assay. […] This assay endpoint, CEETOX_H295R_OHPREG, was analyzed with bidirectional fitting relative to DMSO as the negative control and baseline of activity. […]
Calls of active or inactive are those of the source. How the source made its calls: active means hit-call score of the fitted dose curve at least 0.9, where 1 is the maximum; inactive means score below 0.9.
Respond only with the outcome that fits, drawn from Y (active), N (inactive)

query: Dear all, I need the recorded test outcome for `CC(C)(C)c1cc(/C=C2\SC(N)=NC2=O)cc(C(C)(C)C)c1O` , thank you.
result: N

query: Dear all, I need the recorded test outcome for `CCCCCCCCCCCC[N+](C)(C)C` , thank you.
result: N

query: Dear all, I need the recorded test outcome for `O=C1CCC(C2CCCCC2)CC1` , thank you.
result: Y

query: Dear all, I need the recorded test outcome for `NC(=O)c1nc(-c2cccc(-c3cc(F)ccc3OCC(F)(F)C(F)(F)F)c2)n[nH]1` , thank you.
result: N

The measurements presented in this section are drawn from PubChem BioAssay (EPA / NIEHS).
